Overview of recorded inhibition of SARS-CoV-2 cytopathic effect for various compounds
# Test system: Vero E6 infected with SARS-CoV-2
# Assay method text: inhibition of SARS-CoV-2 cytopathic effect; higher = more antiviral protection, active = above 15
# Condition summary: 833.33 nM; 48 h
Just the number in %, nothing appended.

Some compounds with recorded inhibition of SARS-CoV-2 cytopathic effect:
Compound	Units of measure	Measurement
CCn1cc(-c2ccnc3[nH]c(-c4cccc(CN(C)C)c4)cc23)c(-c2ccc(NC(=O)N(C)C)cc2)n1	%	-3.22
C[C@@H](O)[C@H]1C(=O)N2C(C(=O)O)=C(S[C@@H]3CN[C@H](C(=O)Nc4cccc(C(=O)O)c4)C3)[C@H](C)[C@H]12	%	2.2
Nc1ccc(C(=O)NCC(=O)O)cc1	%	0.71

Consider N#Cc1cccc(-c2c[nH]c3ncnc(N4CCOCC4)c23)c1 . Its measured inhibition of SARS-CoV-2 cytopathic effect is -0.07

For reference, reported inhibition of SARS-CoV-2 cytopathic effect for Cc1nnc2n1-c1sc(CCC(=O)N3CCOCC3)cc1C(c1ccccc1Cl)=NC2 stands at 1.94

---

# System: Vero E6 infected with SARS-CoV-2
# Assay method text: morphology score (similarity to uninfected cells); higher = more like uninfected cells
# Condition summary: 24 h
Kind request: treat 0.05 as inclusive, so morphology score at 0.05 or higher is condition met, anything lower is condition not met.

> print(dat)
                                   compound  qualitative.label
1  COC(=O)c1ccc2c(c1)nc(NC(=O)c1ccccc1)n2CCCc1ccccc1 (10 µM)  condition not met
2  O=C/C=C/c1ccccc1 [cinnamaldehyde] (10 µM)  condition not met
3  O=C1C2CC=CCC2C(=O)N1SC(Cl)(Cl)Cl (stereo not drawn) [captan] (10 µM)      condition met

QUERY: Determine whether measured morphology score meets or exceeds 0.05 for O=C(NC(O)C(Cl)(Cl)Cl)NC(O)C(Cl)(Cl)Cl (stereo not drawn) [dicloralurea] (10 µM)
RESULT: condition met

QUERY: Decide: is the reported value of morphology score for Oc1ccc(Cl)c2cccnc12 [cloxyquin] (10 µM) equal to or greater than 0.05?
RESULT: condition not met

QUERY: Record O=C(OCCN1CCOCC1)C1(c2ccccc2)CCCCC1 (10 µM) ; criterion: morphology score no lower than 0.05. Met?
RESULT: condition not met

QUERY: Is morphology score at least 0.05? Consider CC(C)(C)C(=O)CN1C(=O)[C@H](NC(=O)Nc2cccc(C(=O)O)c2)CN(C2CCCCC2)c2ccccc21 [nastorazepide] (10 µM)
RESULT: condition not met

QUERY: Hello, I need to know if CC(C)(C)c1cc(C(C)(C)C)c(NC(=O)c2c[nH]c3ccccc3c2=O)cc1O [ivacaftor] (10 µM) has measured morphology score not below 0.05. Thanks!
RESULT: condition met

QUERY: Identify whether the reported morphology score of the following compound is 0.05 or greater: O=c1[nH]c2ccccc2c(=O)n1CCCN1CCN(c2ccccc2)CC1 [pelanserin] (10 µM)
RESULT: condition not met

QUERY: Determine whether this compound has morphology score no lower than 0.05: CN(C)CCOC(c1ccccc1)c1ccccc1.Cn1c(=O)c2[nH]c(Cl)nc2n(C)c1=O [dimenhydrinate] (10 µM)
RESULT: condition not met

QUERY: // inclusive: morphology score at least 0.05? input: COc1cc2c(cc1OC)CC(=O)N(CCCN(C)C[C@H]1Cc3cc(OC)c(OC)cc31)CC2 [ivabradine] (10 µM)
RESULT: condition met

QUERY: Say whether CC(=O)NC[C@H]1CN(c2ccc(-c3ccc(CNCc4cnn[nH]4)cc3)c(F)c2)C(=O)O1 [radezolid] (10 µM) shows morphology score of 0.05 or more.
RESULT: condition not met

QUERY: Hello, I need to know if CN(C(=O)c1c(O)c2ccccc2n(C)c1=O)c1ccccc1 [roquinimex] (10 µM) has measured morphology score not below 0.05. Thanks!
RESULT: condition met

Data origin: the supplement of paper PMC13380429
